target: TEM-1 β-lactamase (Escherichia coli); experiment: Cell-free β-lactamase inhibition study (nitrocefin hydrolysis); settings: 10 min pre-incubation at 37° C., nitrocefin substrate
Sequence (P62593 whole entry, looked up): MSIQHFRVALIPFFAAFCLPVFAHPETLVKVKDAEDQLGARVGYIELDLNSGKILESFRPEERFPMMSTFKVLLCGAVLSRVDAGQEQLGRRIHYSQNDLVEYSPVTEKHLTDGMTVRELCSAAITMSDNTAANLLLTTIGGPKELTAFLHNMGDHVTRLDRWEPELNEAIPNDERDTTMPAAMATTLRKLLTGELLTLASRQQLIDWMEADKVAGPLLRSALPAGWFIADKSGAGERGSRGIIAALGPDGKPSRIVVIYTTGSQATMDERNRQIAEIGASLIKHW
pIC50: −log10 of the molar value.
Label 1 when pIC50 >= 5; otherwise 0.

Consider the following illustrative entries.
- compound: "CC(C)(C)C(=O)OCOC(=O)C1C(=C(C=O)C/C=C/c2ccccc2)O[C@@H]2CC(=O)N12 (stereo partly shown) [Example 18]"
  measuredOn: "TEM-1 β-lactamase (Escherichia coli)"
  groupLabel: 1
- compound: "CC1C/C(=C2\\O[C@@H]3CC(=O)N3C2C(=O)OCc2ccccc2)C(=O)O1 (single isomer, unassigned) [Example 46]"
  measuredOn: "TEM-1 β-lactamase (Escherichia coli)"
  groupLabel: 1

// query State whether the measured pIC50 reaches 5, counting equality as reaching it, for C=CCC1(C(=O)OCc2ccccc2)/C(=C/CO)O[C@@H]2CC(=O)N21 (stereo partly shown) [Example 40]
// result 0

// query Does pIC50 meet or surpass 5 for O=CC=C1O[C@@H]2CC(=O)N2C1(C/C=C/c1ccccc1)C(=O)OCc1ccccc1 (single isomer, unassigned) [Example 6] ?
// result 1

// query Could you verify whether the entry O=C(O)C(C/C=C/c1ccccc1)=C1O[C@@H]2CC(=O)N2C1C(=O)OCc1ccccc1 (stereo partly shown) [Example 26] shows pIC50 of no less than 5?
// result 1

// query Check if pIC50 >= 5 (inclusive). Item: COC(=O)C1(C/C=C/c2ccccc2)C(=CC=O)O[C@@H]2CC(=O)N21 (single isomer, unassigned) [Example 14]
// result 0

Cited source for all entries: patent US9120808B2
